Value source: ChEMBL document CHEMBL3994623

Experiment: Cytotoxicity against HAF assessed as effect on cell morphology at 12.5 ug/ml after 24 hrs by hematoxylin-eosin staining-based contrast microscopic method
Conditions: human

[
  {
    "MOL SMILES": "CCCCCCNc1c(OC)ccc2c(Cc3ccc(C)cc3)c3[n+](cc12)CCc1cc2c(cc1-3)OCO2.[Br-]",
    "Activity": "Toxic"
  },
  {
    "MOL SMILES": "CCCCCNc1c(OC)ccc2c(Cc3ccc(C)cc3)c3[n+](cc12)CCc1cc2c(cc1-3)OCO2.[Br-]",
    "Activity": "Toxic"
  },
  {
    "MOL SMILES": "CCCCCNc1c(OC)ccc2c(Cc3ccc(C(F)(F)F)cc3)c3[n+](cc12)CCc1cc2c(cc1-3)OCO2.[Br-]",
    "Activity": "Toxic"
  },
  {
    "MOL SMILES": "CCCCCNc1c(OC)ccc2c(Cc3ccc(O)cc3)c3[n+](cc12)CCc1cc2c(cc1-3)OCO2.[Br-]",
    "Activity": "Toxic"
  }
]

* * *

Test system: Staphylococcus aureus
Assay: Antistaphylococcal activity against linezolid-resistant Staphylococcus aureus NRS-271 containing phage type E-MRSA after 18 hrs by two fold serial dilution method
Format: functional
Settings: NRS-271, 18 h
MIC overview
ATTRIBUTE MEASURED: MIC (µg/mL)

[
  {
    "MOL SMILES": "CN[C@H](CC(C)C)C(=O)N[C@H]1C(=O)N[C@@H](CC(N)=O)C(=O)N[C@H]2C(=O)N[C@H]3C(=O)N[C@H](C(=O)N[C@H](C(=O)O)c4cc(O)cc(O)c4-c4cc3ccc4O)[C@H](O)c3ccc(c(Cl)c3)Oc3cc2cc(c3O[C@@H]2O[C@H](CO)[C@@H](O)[C@H](O)[C@H]2O[C@H]2C[C@](C)(N)[C@H](O)[C@H](C)O2)Oc2ccc(cc2Cl)[C@H]1O",
    "MEASUREMENT TARGET": "Staphylococcus aureus",
    "ATTRIBUTE MEASURED": "MIC",
    "UNIT OF MEASURE": "µg/mL",
    "VALUE MEASURED": 0.39
  },
  {
    "MOL SMILES": "CCCCCCNc1c(OC)ccc2c(Cc3ccc(C)cc3)c3[n+](cc12)CCc1cc2c(cc1-3)OCO2.[Br-]",
    "MEASUREMENT TARGET": "Staphylococcus aureus",
    "ATTRIBUTE MEASURED": "MIC",
    "UNIT OF MEASURE": "µg/mL",
    "VALUE MEASURED": 1.56
  },
  {
    "MOL SMILES": "CCCCNc1c(OC)ccc2c(Cc3ccc(C)cc3)c3[n+](cc12)CCc1cc2c(cc1-3)OCO2.[Br-]",
    "MEASUREMENT TARGET": "Staphylococcus aureus",
    "ATTRIBUTE MEASURED": "MIC",
    "UNIT OF MEASURE": "µg/mL",
    "VALUE MEASURED": 1.56
  },
  {
    "MOL SMILES": "CCCCCNc1c(OC)ccc2c(Cc3ccc(OC)cc3)c3[n+](cc12)CCc1cc2c(cc1-3)OCO2.[Br-]",
    "MEASUREMENT TARGET": "Staphylococcus aureus",
    "ATTRIBUTE MEASURED": "MIC",
    "UNIT OF MEASURE": "µg/mL",
    "VALUE MEASURED": 1.56
  },
  {
    "MOL SMILES": "CCCCCNc1c(OC)ccc2c(Cc3ccc(C)c(C)c3)c3[n+](cc12)CCc1cc2c(cc1-3)OCO2.[Br-]",
    "MEASUREMENT TARGET": "Staphylococcus aureus",
    "ATTRIBUTE MEASURED": "MIC",
    "UNIT OF MEASURE": "µg/mL",
    "VALUE MEASURED": 1.56
  },
  {
    "MOL SMILES": "CCCCCNc1c(OC)ccc2c(Cc3ccc(F)cc3)c3[n+](cc12)CCc1cc2c(cc1-3)OCO2.[Br-]",
    "MEASUREMENT TARGET": "Staphylococcus aureus",
    "ATTRIBUTE MEASURED": "MIC",
    "UNIT OF MEASURE": "µg/mL",
    "VALUE MEASURED": 1.56
  },
  {
    "MOL SMILES": "CCCCCNc1c(OC)ccc2c(Cc3ccc(C(F)(F)F)cc3)c3[n+](cc12)CCc1cc2c(cc1-3)OCO2.[Br-]",
    "MEASUREMENT TARGET": "Staphylococcus aureus",
    "ATTRIBUTE MEASURED": "MIC",
    "UNIT OF MEASURE": "µg/mL",
    "VALUE MEASURED": 1.56
  },
  {
    "MOL SMILES": "CCCCCCNc1c(OC)ccc2c(Cc3ccc(F)cc3)c3[n+](cc12)CCc1cc2c(cc1-3)OCO2.[Br-]",
    "MEASUREMENT TARGET": "Staphylococcus aureus",
    "ATTRIBUTE MEASURED": "MIC",
    "UNIT OF MEASURE": "µg/mL",
    "VALUE MEASURED": 3.13
  },
  {
    "MOL SMILES": "CCCCCCNc1c(OC)ccc2c(Cc3ccccc3)c3[n+](cc12)CCc1cc2c(cc1-3)OCO2.[Br-]",
    "MEASUREMENT TARGET": "Staphylococcus aureus",
    "ATTRIBUTE MEASURED": "MIC",
    "UNIT OF MEASURE": "µg/mL",
    "VALUE MEASURED": 3.13
  },
  {
    "MOL SMILES": "CCCCNc1c(OC)ccc2c(Cc3ccc(OC)cc3)c3[n+](cc12)CCc1cc2c(cc1-3)OCO2.[Br-]",
    "MEASUREMENT TARGET": "Staphylococcus aureus",
    "ATTRIBUTE MEASURED": "MIC",
    "UNIT OF MEASURE": "µg/mL",
    "VALUE MEASURED": 6.25
  },
  {
    "MOL SMILES": "CCCCCCNc1c(OC)ccc2c(Cc3ccc(OC)cc3)c3[n+](cc12)CCc1cc2c(cc1-3)OCO2.[Br-]",
    "MEASUREMENT TARGET": "Staphylococcus aureus",
    "ATTRIBUTE MEASURED": "MIC",
    "UNIT OF MEASURE": "µg/mL",
    "VALUE MEASURED": 6.25
  },
  {
    "MOL SMILES": "CCCCCNc1c(OC)ccc2c(Cc3ccc(C)cc3)c3[n+](cc12)CCc1cc2c(cc1-3)OCO2.[Br-]",
    "MEASUREMENT TARGET": "Staphylococcus aureus",
    "ATTRIBUTE MEASURED": "MIC",
    "UNIT OF MEASURE": "µg/mL",
    "VALUE MEASURED": 1.56
  },
  {
    "MOL SMILES": "CCCCCNc1c(OC)ccc2c(Cc3ccc(O)cc3)c3[n+](cc12)CCc1cc2c(cc1-3)OCO2.[Br-]",
    "MEASUREMENT TARGET": "Staphylococcus aureus",
    "ATTRIBUTE MEASURED": "MIC",
    "UNIT OF MEASURE": "µg/mL",
    "VALUE MEASURED": 3.13
  },
  {
    "MOL SMILES": "CCCCCNc1c(OC)ccc2c(Cc3ccccc3)c3[n+](cc12)CCc1cc2c(cc1-3)OCO2.[Br-]",
    "MEASUREMENT TARGET": "Staphylococcus aureus",
    "ATTRIBUTE MEASURED": "MIC",
    "UNIT OF MEASURE": "µg/mL",
    "VALUE MEASURED": 1.56
  }
]
